target: JAK2 (catalytic domain, His-tag) (Homo sapiens, UniProt O60674); construct: All four purified enzymes contain only the catalytic domain; His (N); purchased Carna Biosciences, Inc; host or cells: baculovirus expression system; test: JAK kinase assay (HTRF, phosphorylation of TK substrate-biotin), JAK2; format: biochemical; conditions: ATP at Km (4 μM); read-out: JAK2 kinase inhibitory activity (EC50 indicator)
Sequence (O60674 849-1124 limits assumed): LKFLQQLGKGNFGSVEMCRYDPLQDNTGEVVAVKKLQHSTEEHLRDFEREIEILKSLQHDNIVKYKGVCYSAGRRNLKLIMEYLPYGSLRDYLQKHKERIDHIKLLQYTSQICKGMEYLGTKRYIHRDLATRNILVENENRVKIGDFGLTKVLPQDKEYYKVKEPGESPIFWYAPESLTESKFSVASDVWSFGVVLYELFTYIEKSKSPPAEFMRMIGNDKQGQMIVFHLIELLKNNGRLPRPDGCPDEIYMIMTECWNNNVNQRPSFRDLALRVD
pEC50: −log10 of the molar value.
MEASUREMENT LABEL: pEC50

get_value(item= O=C(c1cccnc1)N1CCN(c2ncnc3[nH]ccc23)CC12CC2 , readout=pEC50) returns > 7.00

Notebook: CS(=O)(=O)NCCC(=O)N1[C@@H]2CC[C@@H]1CN(c1ncnc3[nH]ccc13)C2 , pEC50 read as 6.30 to 7.00

Kindly note the recorded pEC50 for O=C(c1ccncc1)N1CCN(c2ncnc3[nH]ccc23)CC12CC2 , which is > 7.00

###

biological target: JAK1 (aa 850-1154, catalytic domain, GST-tag) (Homo sapiens, UniProt P23458); construct: JAK1 (aa 850-1154) and TYK2 (aa 871-1187) are expressed with an N-terminally fused GST-tag; GST (N); purchased Carna Biosciences, Inc; host or cells: baculovirus expression system; test: JAK kinase assay (HTRF, phosphorylation of TK substrate-biotin), JAK1; type: biochemical; conditions: HTRF assay, ATP at Km (7 μM); read-out: JAK1 kinase inhibitory activity (EC50 indicator)
Sequence (P23458 850-1154): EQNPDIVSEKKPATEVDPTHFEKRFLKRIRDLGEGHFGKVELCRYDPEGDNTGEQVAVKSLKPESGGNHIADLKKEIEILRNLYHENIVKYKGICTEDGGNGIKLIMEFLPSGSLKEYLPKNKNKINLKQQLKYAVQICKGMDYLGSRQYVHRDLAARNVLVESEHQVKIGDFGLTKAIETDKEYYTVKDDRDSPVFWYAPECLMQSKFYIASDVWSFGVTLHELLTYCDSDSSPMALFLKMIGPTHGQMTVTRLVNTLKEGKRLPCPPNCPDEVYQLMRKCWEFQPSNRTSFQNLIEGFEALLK
I'd be grateful if you could share measured EC50 for these entries.

Noted EC50 for O=C(C1CCc2ccccc21)N1CCN(c2ncnc3[nH]ccc23)CC12CC2 (centres unmarked) , tested on JAK1 (aa 850-1154, catalytic domain, GST-tag) (Homo sapiens, UniProt P23458): 100 to 500 nM

Bench note, JAK1 (aa 850-1154, catalytic domain, GST-tag) (Homo sapiens, UniProt P23458): entry O=C(Cc1ccc(F)cc1)N1CCN(c2ncnc3[nH]cc(Cl)c23)CC12CC2 , its EC50 = 100 to 500 nM

Lab entry: JAK1 (aa 850-1154, catalytic domain, GST-tag) (Homo sapiens, UniProt P23458) assay, molecule COc1cnc2[nH]ccc2c1N1CCN(C(=O)c2cc3cc(C#N)ccc3[nH]2)C2(CC2)C1 , EC50 = > 500 nM

JAK1 (aa 850-1154, catalytic domain, GST-tag) (Homo sapiens, UniProt P23458) assay, molecule COc1cnc2[nH]ccc2c1N1CCN(C(=O)c2ccc(C#N)c(F)c2)C2(CC2)C1 , recorded EC50 = > 500 nM

Here Cc1ccc(CNS(=O)(=O)c2ccc(C(=O)N3CCN(c4ncnc5[nH]ccc45)CC34CC4)cc2)o1 was tested on JAK1 (aa 850-1154, catalytic domain, GST-tag) (Homo sapiens, UniProt P23458), and its EC50 came to < 100 nM

So the reported EC50 for N#CCCCC(=O)N1[C@@H]2CC[C@@H]1CN(c1ncnc3[nH]ccc13)C2 , on JAK1 (aa 850-1154, catalytic domain, GST-tag) (Homo sapiens, UniProt P23458), turned out to be < 100 nM

GET /values?item= Cc1c[nH]c2ncnc(N3CCN(C(=O)c4cnccn4)C4(CC4)C3)c12 &system= JAK1 (aa 850-1154, catalytic domain, GST-tag) (Homo sapiens, UniProt P23458) returns EC50: > 500 nM

The measured EC50 that CC(C)(C#N)C(=O)N1[C@@H]2CC[C@@H]1CN(c1ncnc3[nH]ccc13)C2 showed for JAK1 (aa 850-1154, catalytic domain, GST-tag) (Homo sapiens, UniProt P23458) is 100 to 500 nM

Source listed as patent US9346809B2.
